Would you kindly list normalized growth for each of these compounds?
test: chemical genetic growth profiling, strain panel (AID 1159580);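 further: tested at 20 µM; growth read once vehicle control cultures reached saturation at 30 °C; 1 = growth at the plate median or of vehicle wells; lower values mean less growth of the strain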; conditions: S. cerevisiae deletion strains, growth OD, locus YBR229C, strain ROT2, stronger effect = lower value
About 2,000 (36%) of roughly 5,500 compounds were called active. Not shown: some 18% with an inconclusive outcome. Some of the results follow.
Lab note: record just the number, no unit beside it.

stdin: Which normalized growth is listed for CC(=O)OC1CC2C(C)(C)CCCC2(C)C2CCC3(C)C(c4ccoc4)OC(=O)C4OC43C12C (stereo not drawn) ?
stdout: 0.995

stdin: Also need CC(=O)O[C@H]1C[C@@]2(C)[C@H](c3ccoc3)OC(=O)[C@H]3O[C@]32[C@@]2(C)C1[C@]1(C)C(C[C@H]2OC(C)=O)C(C)(C)[C@H](OC(C)=O)C[C@@H]1OC(C)=O (stereo partly drawn) , thanks.
stdout: 0.949

stdin: Please answer likewise for CC(=O)O[C@@H]1CC2C(C)(C)[C@H](O)C[C@H](O)[C@]2(C)C2CC[C@@]3(C)[C@H](c4ccoc4)OC(=O)[C@H]4O[C@]43[C@@]21C (stereo partly drawn)
stdout: 0.952

----------
experiment: chemical genetic growth profiling, strain panel (AID 1159580);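 further: tested at 20 µM; growth read once vehicle control cultures reached saturation at 30 °C; 1 = growth at the plate median or of vehicle wells; lower values mean less growth of the strain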; conditions: S. cerevisiae deletion strains, growth OD, locus YIL066C, strain RNR3, stronger effect = lower value
In all, about 5,500 compounds went through this assay and about 2,000 (36%) were called active. Not shown: some 18% with an inconclusive outcome. Some of the results follow.
PROPERTY_NAME: normalized growth
Lab note: write the figure by itself, no unit.

stdin: I have this molecule here, `CC(C)Oc1ccc2c(=O)cc(-c3ccccc3)oc2c1` , and I need its recorded normalized growth.
stdout: 0.939

stdin: Here is the next molecule: C#CCOS(=O)OC1CCCCC1Oc1ccc(C(C)(C)C)cc1 (stereo unspecified)
stdout: 1.02

stdin: # repeat for CCC1C2CC3C4N(C)c5ccccc5C45CC(C2C5OC(C)=O)N3C1OC(C)=O (stereo unspecified)
stdout: 1.02

stdin: # iterate: `CC1=CCc2c(cc3oc(C)cc(=O)c3c2O)OC1`
stdout: 0.858

stdin: And what about the molecule `Cc1cc(=O)c2c(O)c3c(cc2o1)OC(C)(C)CC3` ?
stdout: 1.01

stdin: Consider next the molecule COCCOC(=O)C1=C(C)NC(C)=C(C(=O)OC(C)C)C1c1cccc([N+](=O)[O-])c1 (stereo unspecified) in the same way.
stdout: 1.01

stdin: Do the same for Cc1cc(=O)c2c(O)c3c(cc2o1)OCC(C)CC3 (stereo unspecified) please
stdout: 0.941

stdin: One more molecule: `COc1ccc(-c2cc(=O)c3ccccc3o2)cc1OC`
stdout: 1.01

stdin: How about `CCCCCCCCCCCCCCCC[n+]1ccccc1` ?
stdout: 0.0411

stdin: Next record, please: `O=C1c2c(O)ccc(O)c2C(=O)c2c(NCCNCCO)ccc(NCCNCCO)c21`
stdout: 0.992

stdin: Same read-out for `O=C1CC[C@]23C=CC(=O)NCCCCNCCCNC(=O)/C=C/c4ccc(c2c4)O[C@@H]3C1` ?
stdout: 1.04

----------
test: chemical genetic growth profiling, strain panel (AID 1159580);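 further: tested at 20 µM; growth read once vehicle control cultures reached saturation at 30 °C; 1 = growth at the plate median or of vehicle wells; lower values mean less growth of the strain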; conditions: S. cerevisiae deletion strains, growth OD, locus YGL253W, strain hxk2, stronger effect = lower value
Out of some 5,500 compounds screened, about 2,000 (36%) were called active. Roughly 18% stayed inconclusive and do not appear here. The list shows a part of the results.
I'd appreciate it if you could supply normalized growth values for the items below.
Note: the reply should be a number with no unit written.

stdin: What normalized growth value was documented for this compound, `CC(=O)Nc1ccc(O)cc1` ?
stdout: 1.01

stdin: Please do the same for C[C@@H]1CC[C@@]2(OC1)OC1C(O)C3C4CC[C@H]5C[C@H](O[C@@H]6O[C@H](CO)[C@H](O[C@@H]7O[C@H](CO)[C@@H](O)[C@H](O[C@@H]8OC[C@@H](O)[C@H](O)[C@H]8O)[C@H]7O[C@@H]7O[C@H](CO)[C@H](O)[C@H](O[C@@H]8O[C@H](CO)[C@@H](O)[C@H](O)[C@H]8O)[C@H]7O)[C@H](O)[C@H]6O)[C@H](O)C[C@]5(C)C4CC[C@]3(C)C1[C@@H]2C (stereo partly drawn) as well.
stdout: 1.02

stdin: Quick one: `Nc1ccc(C(=O)O)c(O)c1`
stdout: 0.978

stdin: Same read-out for `COc1c(O)cc2c(-c3ccccc3)cc(=O)oc2c1OC` ?
stdout: 1.02

stdin: How about this compound: [N-]=[N+]=CC(=O)OCC(N)C(=O)O (stereo not drawn)
stdout: 0.973

stdin: Also `CCCN1C[C@H](CSC)C[C@@H]2c3cccc4[nH]cc(c34)C[C@H]21` ?
stdout: 1.01

stdin: Proceed to `CCCCCCCCCCCCCCCC[n+]1ccccc1`
stdout: 0.0516

stdin: Moving on to `CN(N=O)C(=O)N[C@@H]1[C@@H](O)[C@H](O)[C@@H](CO)O[C@@H]1O`
stdout: 0.982

stdin: Try this compound too: `CC1=CCc2c(cc3oc(C)cc(=O)c3c2O)OC1`
stdout: 0.987

stdin: # repeat for `O=c1cc(-c2ccc(O)c(O)c2)oc2ccccc12`
stdout: 0.963

stdin: Please do the same for CC1(C)O[C@@H]2CC3C4C[C@H](F)C5=CC(=O)C=C[C@]5(C)[C@@]4(F)[C@@H](O)C[C@]3(C)[C@]2(C(=O)CO)O1 (stereo partly drawn) as well.
stdout: 1.01

stdin: Here is the next compound: `N[C@H](CO)Cc1ccccc1`
stdout: 1.03

stdin: Try this compound too: C=C1C(N)CC2CC1C2(C)C (stereo not drawn)
stdout: 1

stdin: And the next one, `COc1ccc(-c2cc(=O)c3c(O)c(OC)c(OC)c(OC)c3o2)cc1` ?
stdout: 1

stdin: What about `COc1ccc(-c2cc(=O)c3c(OC(C)=O)cc(OC(C)=O)cc3o2)cc1` ?
stdout: 0.97

stdin: Please give the result for CC(=O)O[C@H]1C[C@H](O[C@H]2[C@@H](O)C[C@H](O[C@H]3[C@@H](O)C[C@H](O[C@H]4CC[C@@]5(C)C(CCC6C5C[C@@H](O)[C@]5(C)[C@@H](C7=CC(=O)OC7)CC[C@]65O)C4)O[C@@H]3C)O[C@@H]2C)O[C@H](C)[C@H]1O[C@@H]1O[C@H](CO)[C@@H](O)[C@H](O)[C@H]1O (stereo partly drawn) too.
stdout: 0.997

stdin: Try this compound too: `COc1ccc(-c2cc(=O)c3cc(OC)ccc3o2)cc1`
stdout: 0.894

stdin: Quick one: `O=c1c2ccccc2oc2ccccc12`
stdout: 0.859

----------
What normalized growth was measured for each of the following?
test: chemical genetic growth profiling, strain panel (AID 1159580);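 further: tested at 20 µM; growth read once vehicle control cultures reached saturation at 30 °C; 1 = growth at the plate median or of vehicle wells; lower values mean less growth of the strain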; details: S. cerevisiae deletion strains, growth OD, locus YHR200W, strain rpn10, stronger effect = lower value
Screen size: about 5,500 compounds; about 2,000 (36%) were called active. Roughly 18% stayed inconclusive and do not appear here. The list shows a part of the results.
Kindly provide the number alone.

stdin: Returns the measured normalized growth for the input molecule. Input: CSc1ccc2c(c1)C(N1CCN(C)CC1)Cc1ccccc1S2 (stereo unspecified)
stdout: 0.959

stdin: Next: `O=c1oc2ccccc2c(O)c1Cc1c(O)c2ccccc2oc1=O`
stdout: 0.98

stdin: Repeat for the following molecule: `O=C1CCc2cc(OCCCCc3nnnn3C3CCCCC3)ccc2N1`
stdout: 0.995

stdin: Also `N[C@@H]1CONC1=O` , if possible.
stdout: 1.01

stdin: And for `CCCCCCCCCCCCCCCC[n+]1ccccc1` ?
stdout: 0.0581

stdin: Field entry: C=CCCCCCCCCCCCC(O)CC(O)CO (stereo unspecified) (tested in a mixture with another compound)
stdout: 0.328

stdin: Please give the result for Cn1nnnc1SCC1=C(C(=O)O)N2C(=O)C(NC(=O)C(O)c3ccccc3)C2SC1 (stereo unspecified) too.
stdout: 1.01

stdin: Next up: `CC(=O)Nc1cccc(O)c1`
stdout: 0.996

stdin: Another molecule to look at: CC1NC(=O)NC1=O (stereo unspecified)
stdout: 1.01

stdin: Moving on to the next molecule: CCOC(=O)C1C(C=C(C)C)C1(C)C (stereo unspecified)
stdout: 1.02

stdin: Same thing, different molecule: `O=c1c(-c2cc(O)c(O)c(O)c2)coc2cc(O)c(O)c(O)c12`
stdout: 0.957

stdin: What do you get for Nc1ccc(C(=O)O)c(O)c1 (tested in a mixture with another compound) ?
stdout: 0.988

stdin: Now the same for CC1(C)O[C@@H]2CC3C4CCC5=CC(=O)C=C[C@]5(C)[C@@]4(F)[C@@H](O)C[C@]3(C)[C@]2(C(=O)CO)O1 (stereo partly specified)
stdout: 0.995

stdin: Try the molecule CC(=O)O[C@H]1C[C@@H](O)C(C)(C)C2C[C@@H](OC(C)=O)[C@]3(C)C(CC[C@@]4(C)[C@H](c5ccoc5)OC(=O)C5OC543)[C@]21C (stereo partly specified)
stdout: 0.99

stdin: How about this molecule: `COc1ccc(-c2cc(=O)c3c(OC(C)=O)cc(OC(C)=O)cc3o2)cc1`
stdout: 0.959

stdin: Also `COc1cccc2c1cc([N+](=O)[O-])c1c(C(=O)O)cc3c(c12)OCO3` , if possible.
stdout: 1.02

stdin: Can you handle `CC(=O)Nc1ccc(OC(=O)c2ccccc2O)cc1` next?
stdout: 0.934

stdin: Try `NCC(=O)CCC(=O)O` next.
stdout: 0.99

stdin: What do you get for `COc1ccc2cc3[n+](cc2c1OC)CCc1cc2c(cc1-3)OCO2` ?
stdout: 0.518

stdin: What do you have for `O=c1c2ccccc2oc2ccc(O)cc12` ?
stdout: 0.956

stdin: Cool, now C=CCc1ccccc1OCC(O)CNC(C)C (stereo unspecified)
stdout: 1

stdin: Ok, now `O=c1c2ccccc2[se]n1-c1ccccc1`
stdout: 0.0601

stdin: Can you check `CC(C)Oc1ccc2c(=O)cc(-c3ccccc3)oc2c1` next?
stdout: 0.869

stdin: Try `Nc1ccc(C(=O)Oc2ccccc2)c(O)c1` next.
stdout: 0.913

stdin: Similarly, COc1cc([C@@H]2c3cc4c(cc3C(O[C@@H]3O[C@@H]5CO[C@@H](c6cccs6)OC5[C@H](O)[C@H]3O)C3COC(=O)[C@@H]32)OCO4)cc(OC)c1O (stereo partly specified) ?
stdout: 1.01

stdin: Same thing, different molecule: CC(=O)O[C@@H]1CC2C(C)(C)[C@H](O)C[C@H](O)[C@]2(C)C2CC[C@@]3(C)[C@H](c4ccoc4)OC(=O)[C@H]4O[C@]43[C@@]21C (stereo partly specified)
stdout: 0.983

stdin: Try this molecule too: `COc1cc2cc[n+]3cc4c(OC)c(OC)ccc4cc3c2cc1OC`
stdout: 0.965

stdin: Query `CCC/C=C/C=C/[C@@H]1C[C@@H](O)[C@@H](O)C(=O)[C@H]1C=O` next
stdout: 0.972

stdin: Repeat with `Nc1ccc(C(=O)O)c(O)c1`
stdout: 0.999

stdin: Also CC(=O)O[C@@H]1CC2C(C)(C)C(=O)CC[C@]2(C)C2CC[C@@]3(C)[C@H](c4ccoc4)OC(=O)C4OC43[C@@]21C (stereo partly specified) , if possible.
stdout: 1

stdin: Record: `COc1cc([C@@H]2c3cc4c(cc3[C@H](OC(C)=O)[C@H]3COC(=O)[C@H]23)OCO4)cc(OC)c1OC`
stdout: 0.988

stdin: Repeat with CC(=O)OC1CC2C(C)(C)CCCC2(C)C2CCC3(C)C(c4ccoc4)OC(=O)C4OC43C12C (stereo unspecified)
stdout: 1

stdin: Next molecule up: CC(=O)O[C@H]1C[C@@]2(C)[C@H](c3ccoc3)OC(=O)[C@H]3O[C@]32[C@@]2(C)C1[C@]1(C)C(C[C@H]2OC(C)=O)C(C)(C)[C@H](OC(C)=O)C[C@@H]1OC(C)=O (stereo partly specified)
stdout: 0.977

stdin: Query `Cn1c(=O)c2[nH]c(C3CCCC3)nc2n(C)c1=O` next
stdout: 1.01

stdin: Also, CC(=O)CC(c1ccccc1)c1c(O)c2ccccc2oc1=O (stereo unspecified) please.
stdout: 1.02

stdin: Try this molecule too: `CC1=CCc2c(cc3oc(C)cc(=O)c3c2O)OC1`
stdout: 0.921

stdin: Moving on to the next molecule: `Cc1cc(=O)c2c(O)c3c(cc2o1)OC(C)(C)CC3`
stdout: 0.968

stdin: // query: CC1(C)O[C@@H]2CC3C4C[C@H](F)C5=CC(=O)C=C[C@]5(C)[C@@]4(F)[C@@H](O)C[C@]3(C)[C@]2(C(=O)CO)O1 (stereo partly specified)
stdout: 1.02

stdin: Likewise for `O=C(O)/C=C(\CC(=O)O)C(=O)O` ?
stdout: 0.991

stdin: And then `CC(C)c1ccc2c(c1O)CC[C@H]1C3=C(CC[C@]21C)C(=O)OC3` , what is it?
stdout: 0.957

stdin: Another: CC(=O)O[C@@H]1CC2C(C)(C)CCC(=O)[C@]2(C)C2CC[C@@]3(C)[C@H](c4ccoc4)OC(=O)C4OC43[C@@]21C (stereo partly specified)
stdout: 0.975
